Just for reference, ChEMBL document CHEMBL2034935 is where these values come from.

# Target: Prostaglandin D2 receptor 2 (Homo sapiens, UniProt Q9Y5Y4)
# Sequence (Q9Y5Y4 whole entry): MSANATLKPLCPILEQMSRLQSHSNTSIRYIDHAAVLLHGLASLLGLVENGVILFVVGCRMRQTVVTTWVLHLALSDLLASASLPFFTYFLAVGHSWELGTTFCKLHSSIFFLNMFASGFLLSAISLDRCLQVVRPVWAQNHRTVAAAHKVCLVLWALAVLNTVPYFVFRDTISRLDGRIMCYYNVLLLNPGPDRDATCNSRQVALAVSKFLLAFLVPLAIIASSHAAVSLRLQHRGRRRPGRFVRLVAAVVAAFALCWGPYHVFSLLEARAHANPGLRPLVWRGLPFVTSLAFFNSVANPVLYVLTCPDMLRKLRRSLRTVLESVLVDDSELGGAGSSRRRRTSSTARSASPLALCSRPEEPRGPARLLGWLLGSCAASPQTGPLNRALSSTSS
# Assay Notes: Displacement of [3HPGD2 from human CRTH2 receptor expressed in CHO cell membrane after 90 mins by scintillation proximity assay
pKi: −log10 of the molar value.
Measured Endpoint: pKi

CCCCC(=O)N(Cc1cccc(OC)c1)c1cccc(C(=O)O)c1 | 5.10

I: CCCCC(=O)N(Cc1ccc(OC)cc1)c1cc(F)cc(-c2nnn[nH]2)c1
II: CCC(=O)N(Cc1ccc2c(c1)OCCO2)c1cc(-c2nnn[nH]2)ccc1F
Which one would you say has the larger pKi value: I , or II ? Could you answer with the label of the item you picked?
I
(I: 8.52, II: 7.96)

---

# Target: Cytochrome P450 2C9 (Homo sapiens, UniProt P11712)
# Sequence (P11712 whole entry): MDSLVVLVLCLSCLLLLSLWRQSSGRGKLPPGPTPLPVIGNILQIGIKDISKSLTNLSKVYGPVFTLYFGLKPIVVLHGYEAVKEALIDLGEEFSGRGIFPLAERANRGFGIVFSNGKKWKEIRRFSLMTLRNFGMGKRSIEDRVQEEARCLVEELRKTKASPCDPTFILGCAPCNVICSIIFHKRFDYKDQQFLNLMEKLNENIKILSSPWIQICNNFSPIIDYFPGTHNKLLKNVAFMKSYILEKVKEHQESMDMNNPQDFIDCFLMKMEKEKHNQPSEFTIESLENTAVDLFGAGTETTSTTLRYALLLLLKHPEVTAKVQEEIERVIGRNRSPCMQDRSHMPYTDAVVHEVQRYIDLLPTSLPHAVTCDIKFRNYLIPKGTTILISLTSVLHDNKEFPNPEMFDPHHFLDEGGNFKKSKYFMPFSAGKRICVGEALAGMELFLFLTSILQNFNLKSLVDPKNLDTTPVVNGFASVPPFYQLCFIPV
# Assay Notes: Inhibition of human recombinant CYP2C9 incubated for 15 mins prior to substrate addition measured after 30 mins by spectrophotometry
pIC50: −log10 of the molar value.
Measured Endpoint: pIC50

CCCCC(=O)N(Cc1ccc2c(c1)OCCO2)c1cccc(-c2nnn[nH]2)c1 | 6.19
CCC(=O)N(Cc1ccc(C(F)(F)F)cc1)c1cc(F)cc(-c2nnn[nH]2)c1 | 6.55
CC(C)CC(=O)N(Cc1ccc(S(C)(=O)=O)cc1)c1cc(F)cc(-c2nnn[nH]2)c1 | 5.77

P: CCC(=O)N(Cc1ccc(OC(F)(F)F)cc1)c1cc(F)cc(-c2nnn[nH]2)c1
Q: CS(=O)(=O)c1ccc(CN(C(=O)C2CCCC2)c2cc(F)cc(-c3nnn[nH]3)c2)cc1
R: CCC(=O)N(Cc1cccc(O)c1)c1cc(F)cc(-c2nnn[nH]2)c1
S: CCC(=O)N(Cc1cccc(OC(C)C)c1)c1cc(F)cc(-c2nnn[nH]2)c1
T: CCCCC(=O)N(Cc1ccc(OC)cc1)c1cccc(-c2nnn[nH]2)c1
Rank entries according to their pIC50, from the largest number down. Write out the labels following the order that was asked for.
P, S, T, R, Q
(P: 6.70, S: 6.47, T: 6.08, R: 5.70, Q: 5.13)

---

# Target: Prostaglandin D2 receptor 2 (Homo sapiens, UniProt Q9Y5Y4)
# Assay Notes: Displacement of [3HPGD2 from human CRTH2 receptor expressed in CHO cell membrane after 90 mins by scintillation proximity assay
Measured Endpoint: Ki (nM)

Some molecules with known Ki results, for comparison:
CS(=O)(=O)c1ccc(CN(C(=O)c2cccnc2)c2cc(F)cc(-c3nnn[nH]3)c2)cc1 | 4
CCC(=O)N(Cc1cccc(OC(C)C)c1)c1cc(F)cc(-c2nnn[nH]2)c1 | 6.4
C#Cc1cccc(CN(C(C)=O)c2cc(-c3nnn[nH]3)ccc2F)c1 | 140
CCCCC(=O)N(Cc1ccc2ccccc2c1)c1cccc(-c2nnn[nH]2)c1 | 39

I: CCC(=O)N(Cc1ccc2c(c1)OCO2)c1cccc(-c2nnn[nH]2)c1
II: CCC(=O)N(Cc1cccc(C(F)(F)F)c1)c1cccc(-c2nnn[nH]2)c1
Which one would you say has the larger Ki value: I , or II ? Could you answer with the label of the item you picked?
II

---

# Target: Prostaglandin D2 receptor 2 (Homo sapiens)
# Assay Notes: Antagonist activity at human CRTH2 receptor expressed in CHO cell membrane assessed as inhibition of PGD2-induced [35S]GTPgammaS binding at 2 uM after 30 mins by microbeta scintillation counting relative to control
# Assay type: functional, cell membranes
Measured Endpoint: inhibition (%)

CS(=O)(=O)c1ccc(CN(C(=O)C2CCCC2)c2cc(F)cc(-c3nnn[nH]3)c2)cc1 | 80
CCC(=O)N(Cc1cccc(OC)c1)c1cc(F)cc(-c2nnn[nH]2)c1 | 107
CCCCC(=O)N(Cc1ccc(OC)cc1)c1cc(Cl)cc(-c2nnn[nH]2)c1 | 110
CCCCC(=O)N(Cc1ccc2c(c1)OCCO2)c1cc(F)cc(-c2nnn[nH]2)c1 | 102
CS(=O)(=O)c1ccc(CN(C(=O)Cc2ccccc2)c2cc(F)cc(-c3nnn[nH]3)c2)cc1 | 94
